Values were extracted from patent US20230279079A1.

system-under-test: T1, SARS spike S1 subunit (severe acute respiratory syndrome …, UniProt P59594 14-667)
T1 construct: domain: S1 subunit
method-description: ELISA
measured-endpoint: binding result

The binder identified as FM 7B (antibody, V domains shown) VH: EVQLVQSGAEVKKPGASVKVSCKASGYTFTSYAMHWVRQAPGQRLEWMGWINTGNGNTKYSQKFQGRVTITRDTSASTAYMELSSLRSEDTAVYYCARDPTYCSSTSCYPFSWFDPWGQGTLVTVSS VL: NFMLTQPPSVSVAPGQTARITCGGNNIGSKSVHWYQQKPGQAPVLVVYDDSDRPSGIPERFSGSNSGNTATLTISRVEAGDEADYYCQVWDSTGDHSWVFGGGTKLTVL registered its binding result at binds

Measured binding result of EZ 7A (antibody, V domains shown) VH: EVQLVESGAEVKKPGESLKISCKGSGYSFTSYWIGWVRQMPGKGLEWMGIIYPGDSDTRYSPSFQGQVTISADKSISTAYLQWSSLKASDTAMYYCARGWVYRGFPYYGMDVWGQGTMVTVSS VL: QSALTQPRSVSGSPGQSVTISCTGTSSDVGGYNYVSWYQQHPGKAPKLMIYDVSKRPSGVPDRFSGSKSGNTASLTISGLQAEDEADYYCCSYAGSYTLVFGGGTKLTVL : binds
